# Assay Comment: Hepatic microsome stability assay
# Format: in vitro ADME, human
# Conditions Used: human, liver microsomes, pH 7.4
Measured Property: microsomal CLint at 1 μM (µL/min/mg)

>>> reported_value("CC12C[C@@]34C=CC(=O)[C@@](C)(CCC(=O)Nc5c(O)ccc(C(=O)O)c5O)C3[C@H](CC1C4)O2 (stereo partly shown) [PTM, platensimycin, reference compound]")
14

----------
# Assay Comment: Hepatic microsome stability assay
# Assay type: in vitro ADME, mouse
# Conditions Used: mouse, liver microsomes, pH 7.4
Measured Property: microsomal CLint at 1 μM (µL/min/mg)

>>> reported_value("CC12C[C@@]34C=CC(=O)[C@@](C)(CCC(=O)Nc5c(O)ccc(C(=O)O)c5O)C3[C@H](CC1C4)O2 (stereo partly shown) [PTM, platensimycin, reference compound]")
51
